System: K-562 leukemia
Experimental details: NCI tumour cell line growth inhibition, 48 h
Each entry below carries its recorded TGI.
Property measured: TGI

# Compound, Target desc, Data value
records = [
    ("Cn1cc(-c2cc3c(N4CCN(c5ncc([C@@](C)(N)c6ccc(F)cc6)cn5)CC4)ncnn3c2)cn1", "K-562 leukemia", "> 100 µM"),
    ("COCOC1/C=C/CCCCC(=O)C(C)C#CC1 (stereo not given)", "K-562 leukemia", "7.66 µM"),
    ("O=C(O)CSc1n[nH]c(-c2ccccc2O)n1", "K-562 leukemia", "> 100 µM"),
    ("CC1(C)[C@@H](NOCCCN)CC[C@]2(C)[C@H]3C(=O)C=C4[C@@H]5C[C@](C)(C(=O)O)CC[C@]5(C)CC[C@@]4(C)[C@]3(C)CC[C@@H]12", "K-562 leukemia", "12.1 µM"),
    ("COc1ccc(/C=C/COC(C)=O)cc1OC", "K-562 leukemia", "> 100 µM"),
    ("COc1ccc(Cn2c(Br)c3c(c2Br)-c2nc(N)sc2CC3)cc1", "K-562 leukemia", "57.9 µM"),
    ("COc1cc2c(/C=C3/C(=O)Nc4cccc(Cl)c43)c(Cl)[nH]c2cc1C", "K-562 leukemia", "3.64 µM"),
    ("COC(=O)/C=C/c1cc(OC(C)=O)c2c(c1)[C@@H](C(=O)OC)[C@H](c1ccc(OC(C)=O)c(OC(C)=O)c1)O2", "K-562 leukemia", "> 49.2 µM"),
    ("CCOC(=O)c1ccc(-c2cc(C)no2)[nH]1", "K-562 leukemia", "> 100 µM"),
    ("N#Cc1nc(-c2cnccn2)oc1N", "K-562 leukemia", "> 100 µM"),
]
